Molecular target: T1, human CX3CR1 (human, UniProt P49238 1-355)
T1 sequence: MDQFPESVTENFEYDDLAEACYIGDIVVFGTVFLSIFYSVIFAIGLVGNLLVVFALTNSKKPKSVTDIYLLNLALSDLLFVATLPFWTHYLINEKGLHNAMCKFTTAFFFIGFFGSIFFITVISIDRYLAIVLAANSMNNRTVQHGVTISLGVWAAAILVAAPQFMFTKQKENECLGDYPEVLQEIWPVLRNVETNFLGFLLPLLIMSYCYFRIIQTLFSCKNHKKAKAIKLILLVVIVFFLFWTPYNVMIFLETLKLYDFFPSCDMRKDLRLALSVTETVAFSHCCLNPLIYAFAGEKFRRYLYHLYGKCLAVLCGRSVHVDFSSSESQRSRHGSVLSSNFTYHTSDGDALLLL
Assay: cell-based or functional assay
MEASURED ATTRIBUTE: % block, fractalkine induced chemotaxis (%)
# unit: % | format: bare number

1. CX3CR1BII017 (VHH, expressed in E. coli as described for the monovalent VHHs) EVQLVESGGGSVQAGESLRLSCAASGSIFSSNAMAWYRQAPPGKQRDLVALINSVGITKYADSVKGRFTISSDNAKNTVYLEMNSLKPEDTAVYYCTSDGRRGWDTRYWGQGTQVTVSSGGGGSGGGGSGGGGSGGGGSGGGGSGGGGSGGGGSEVQLVESGGGSVQAGESLRLSCAASGSIFSSNAMAWYRQAPPGKQRDLVALINSVGITKYADSVKGRFTISSDNAKNTVYLEMNSLKPEDTAVYYCTSDGRRGWDTRYWGQGTQVTVSS; 89

Okay, next one:
Find the recorded % block, fractalkine induced chemotaxis belonging to CX3CR1BII009 (VHH, expressed in E. coli as described for the monovalent VHHs) KVQLVESGGGLVQPGGSLRLSCATSGTIFSNNAMGWYRQAPGKKRDLVASISSSGSTNYADSVKGRFTVSRDNDKNTGYLQMNSLKPEDTGVYYCTLDARRGWNTAYWGQGAQVTVSSGGGGSGGGGSGGGGSGGGGSGGGGSGGGGSGGGGSEVQLVESGGGLVQAGGSLRLSCVASGRTFSSYAMGWFRQAPGKERAFVAGISGSASRKYYADSVKGRFTVSRDNARNTVYLQMNSLKPEDTAVYYCAASNSYPKVQFDYYGQGTQVTVSS and report it.
79
